Assay: Clearance in dog at 0.5 mg/kg, iv
Assay type: ADME, organism-based, Canis lupus familiaris
Conditions: in vivo
measured.property: clearance (mL/min/kg)
Your answer is read as mL/min/kg, so omit the unit and give the number.

Request the reported clearance associated with Cn1nc(C(=O)N(Cc2ccccc2)Cc2ccc(C(=O)O)cc2)c2c1-c1cc(Cl)ccc1OC2 [NIDUFEXOR]
3.6

* * *

Experiment: Oral bioavailability in Wistar rat at 10 mg/kg
Assay type: ADME, organism-based
Details: in vivo
measured.property: bioavailability (%)
Your answer is read as %, so omit the unit and give the number.

Request the reported bioavailability associated with Cn1nc(C(=O)N(Cc2ccccc2)Cc2ccc(C(=O)O)cc2)c2c1-c1cc(Cl)ccc1OC2 [NIDUFEXOR]
52
